// data source = ChEMBL document CHEMBL1125117

Target: Polyunsaturated fatty acid 5-lipoxygenase (Homo sapiens) (UniProt P09917)
Sequence (P09917 whole entry): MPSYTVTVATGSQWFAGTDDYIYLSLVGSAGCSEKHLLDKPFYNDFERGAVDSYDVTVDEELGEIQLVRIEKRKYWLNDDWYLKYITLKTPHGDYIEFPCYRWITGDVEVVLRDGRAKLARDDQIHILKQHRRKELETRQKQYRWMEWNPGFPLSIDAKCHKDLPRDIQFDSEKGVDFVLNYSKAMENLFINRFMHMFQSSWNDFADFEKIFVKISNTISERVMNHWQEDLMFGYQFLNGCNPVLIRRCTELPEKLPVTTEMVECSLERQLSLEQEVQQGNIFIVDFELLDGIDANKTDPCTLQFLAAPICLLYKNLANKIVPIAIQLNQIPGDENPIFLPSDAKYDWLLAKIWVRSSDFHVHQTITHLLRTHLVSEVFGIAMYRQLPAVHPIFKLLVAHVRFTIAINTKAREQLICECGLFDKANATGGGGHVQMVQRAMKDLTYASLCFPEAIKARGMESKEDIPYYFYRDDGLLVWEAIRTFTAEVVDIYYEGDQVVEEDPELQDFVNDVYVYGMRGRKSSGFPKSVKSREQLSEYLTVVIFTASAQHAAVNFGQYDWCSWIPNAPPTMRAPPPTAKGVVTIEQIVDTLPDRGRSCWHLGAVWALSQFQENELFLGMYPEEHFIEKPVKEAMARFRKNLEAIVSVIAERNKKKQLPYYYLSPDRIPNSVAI
Test: In vitro inhibitory activity against 5-lipoxygenase in human polymorphonuclear (PMN) cells
Details: concentration not given here
observed_property: inhibition (%)

// solved cases for inhibition follow
>  <molecule>
COc1ccc(N2C(=O)C(C)(C)c3cccnc32)cc1

>  <observed_property>
inhibition

>  <readout_value>
11

$$$$
>  <molecule>
CC1(C)C(=O)N(c2ccc(F)cc2F)c2ncccc21

>  <observed_property>
inhibition

>  <readout_value>
7

$$$$
>  <molecule>
CC1(C)C(=O)N(c2ccc(Cl)cc2)c2ncc(Br)cc21

>  <observed_property>
inhibition

>  <readout_value>
34

$$$$
>  <molecule>
CC1(Cc2ccccc2)C(=O)N(c2ccccc2)c2ncccc21 (configuration not stated)

>  <observed_property>
inhibition

>  <readout_value>
17

$$$$
>  <molecule>
C[S+]([O-])c1ccc(N2C(=O)C(C)(C)c3cccnc32)cc1 (configuration not stated)

>  <observed_property>
inhibition

>  <readout_value>
11

$$$$

P: CC1(C)C(=O)N(c2ccc(Cl)c(Cl)c2)c2ncccc21
Q: CC1(C)C(=O)N(c2ccc(Cl)cc2Cl)c2ncccc21
R: CCC1(CC)C(=O)N(c2ccccc2)c2ncccc21
S: CC1(C)C(=O)N(c2cccc(C(F)(F)F)c2)c2ncccc21
T: CC1(C)C(=O)N(c2ccc(F)cc2)c2ncccc21
### Prompt Would you mind ranking these molecules by ascending inhibition? Labels, ranked as asked.
### Response P, T, R, Q, S
(P: 0%, T: 2%, R: 12%, Q: 20%, S: 34%)
